Data origin: the supplement of paper PMC11732987

subject-of-test: USP39 (UniProt Q53GS9)
Sequence (whole entry): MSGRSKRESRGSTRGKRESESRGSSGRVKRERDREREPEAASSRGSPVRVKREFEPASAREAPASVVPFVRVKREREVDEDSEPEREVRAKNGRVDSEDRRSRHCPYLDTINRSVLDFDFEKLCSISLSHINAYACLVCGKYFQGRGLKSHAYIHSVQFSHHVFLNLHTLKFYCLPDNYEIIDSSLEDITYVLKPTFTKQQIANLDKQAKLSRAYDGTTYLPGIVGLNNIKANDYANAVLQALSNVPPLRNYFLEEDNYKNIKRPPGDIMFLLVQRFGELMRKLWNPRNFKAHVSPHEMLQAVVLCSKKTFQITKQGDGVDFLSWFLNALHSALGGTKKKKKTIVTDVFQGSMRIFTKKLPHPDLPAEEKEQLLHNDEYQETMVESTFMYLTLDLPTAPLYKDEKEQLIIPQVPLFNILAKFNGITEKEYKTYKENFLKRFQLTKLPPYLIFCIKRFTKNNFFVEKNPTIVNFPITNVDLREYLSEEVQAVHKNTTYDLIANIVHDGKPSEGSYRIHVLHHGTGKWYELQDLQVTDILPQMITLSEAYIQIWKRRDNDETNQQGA
measurement-protocol: log2 ratio of Biotin-Ahx-Ub-VS probe labelling (fragment/DMSO); higher = less target engagement (more negative = stronger competition), active = hit call of the paper (q ≤ 0.05, log2 ratio ≤ -1)
assay-context: compound concentration: 200 uM; treatment time: 3 h
Label scheme for log2 ratio of Biotin-Ahx-Ub-VS probe labelling: lower than 0.09 is NO, 0.09 and above is YES.

- compound: "O=C(CCl)N1CCOC(CCc2ccccc2)C1 (centres undefined)"
  class: "YES"
- compound: "CN1c2ccccc2C(NC(=O)CCl)CS1(=O)=O (centres undefined)"
  class: "NO"
- compound: "Cc1cc(NC(=O)CCl)n(-c2ccccc2)n1"
  class: "NO"
- compound: "Cl.Cn1ncc2c1CC(NC(=O)CCl)CC2 (centres undefined)"
  class: "NO"
- compound: "CC(NC(=O)CCl)c1noc(Cc2ccccc2)n1 (centres undefined)"
  class: "NO"
- compound: "Cc1nc(CN2CCN(C(=O)CCl)CC2)cs1"
  class: "NO"
- compound: "CCN(Cc1ccc(C#N)cc1F)C(=O)CCl"
  class: "NO"
- compound: "Cl.O=C(CCl)NCCN1CCc2ccccc21"
  class: "YES"
- compound: "CC(NC(=O)CCl)c1cc2n(n1)CCCC2.Cl (centres undefined)"
  class: "NO"
- compound: "CS(=O)(=O)N1CCCN(C(=O)CCl)CC1"
  class: "NO"
- compound: "O=C(CCl)N1CCCN(C(=O)c2ccc(Cl)cc2)CC1"
  class: "NO"
- compound: "Cc1n[nH]c(=O)c2c(NC(=O)CCl)oc(C)c12"
  class: "NO"
- compound: "Cl.O=C(CCl)NC1(c2ncccn2)CCC1"
  class: "YES"
- compound: "O=C(CCl)NC(Cn1ccccc1=O)c1ccccc1 (centres undefined)"
  class: "NO"
- compound: "Cc1n[nH]c2c1CN(C(=O)CCl)CC2"
  class: "YES"
- compound: "CCN(C(=O)CCl)C1CCCCC1"
  class: "NO"
- compound: "Cc1nc(CNC(=O)CCl)c2ccccn12.Cl"
  class: "YES"
- compound: "CNC(=O)C1CCN(C(=O)CCl)CC1"
  class: "YES"
- compound: "O=C(CCl)NC1CCOc2ccccc21 (centres undefined)"
  class: "NO"
- compound: "O=C(CCl)N1CCOC2(CCC2)CC1"
  class: "YES"
- compound: "O=C(CCl)N1CCC(c2ccn[nH]2)C1 (centres undefined)"
  class: "NO"
- compound: "NS(=O)(=O)c1ccc(Cl)c(NC(=O)CCl)c1"
  class: "YES"
- compound: "O=C(CCl)N1CCC(C(=O)N2CCCC2)CC1"
  class: "NO"
- compound: "Cc1cc(C(=O)NC2CCN(C(=O)CCl)CC2)no1"
  class: "NO"
- compound: "CC(O)CC1CCN(C(=O)CCl)CC1 (centres undefined)"
  class: "NO"
- compound: "Cc1conc1C1CN(C(=O)CCl)C1"
  class: "YES"
- compound: "Cl.O=C(CCl)N1CC(c2ccc(Br)cn2)C1"
  class: "NO"
- compound: "O=C(CCl)N1CCC(=C(F)CO)C1"
  class: "YES"

###

subject-of-test: UniProt P51784
Sequence (P51784 whole entry, the tested form may be a part): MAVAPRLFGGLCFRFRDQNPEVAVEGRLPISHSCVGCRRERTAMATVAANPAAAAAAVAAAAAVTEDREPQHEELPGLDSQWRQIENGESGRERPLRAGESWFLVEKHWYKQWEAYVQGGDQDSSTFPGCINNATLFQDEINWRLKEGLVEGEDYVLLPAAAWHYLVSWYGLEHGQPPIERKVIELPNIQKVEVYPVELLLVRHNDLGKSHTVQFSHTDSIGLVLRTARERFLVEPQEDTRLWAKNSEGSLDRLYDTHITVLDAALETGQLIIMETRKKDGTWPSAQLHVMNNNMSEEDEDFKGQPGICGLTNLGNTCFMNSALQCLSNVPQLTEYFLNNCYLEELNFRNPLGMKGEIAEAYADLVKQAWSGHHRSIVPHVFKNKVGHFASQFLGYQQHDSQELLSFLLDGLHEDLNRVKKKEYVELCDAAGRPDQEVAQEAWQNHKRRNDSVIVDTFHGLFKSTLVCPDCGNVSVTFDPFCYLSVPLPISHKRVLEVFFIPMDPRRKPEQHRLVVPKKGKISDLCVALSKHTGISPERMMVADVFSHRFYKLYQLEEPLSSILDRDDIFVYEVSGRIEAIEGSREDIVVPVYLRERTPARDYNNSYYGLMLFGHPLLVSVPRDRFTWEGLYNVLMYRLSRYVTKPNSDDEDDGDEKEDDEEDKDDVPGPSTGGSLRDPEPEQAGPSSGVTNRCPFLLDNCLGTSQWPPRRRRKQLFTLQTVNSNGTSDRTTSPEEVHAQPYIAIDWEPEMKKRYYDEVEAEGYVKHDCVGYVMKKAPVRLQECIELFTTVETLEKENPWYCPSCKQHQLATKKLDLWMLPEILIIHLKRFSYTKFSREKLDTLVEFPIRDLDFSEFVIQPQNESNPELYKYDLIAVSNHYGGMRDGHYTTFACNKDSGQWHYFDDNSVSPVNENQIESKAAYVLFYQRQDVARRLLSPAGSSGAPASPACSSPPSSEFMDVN
measurement-protocol: log2 ratio of Biotin-Ahx-Ub-VS probe labelling (fragment/DMSO); higher = less target engagement (more negative = stronger competition), active = hit call of the paper (q ≤ 0.05, log2 ratio ≤ -1)
assay-context: compound concentration: 200 uM; treatment time: 3 h
Items are presented alongside their recorded log2 ratio of Biotin-Ahx-Ub-VS probe labelling.
measured-parameter: log2 ratio of Biotin-Ahx-Ub-VS probe labelling

- compound: "O=C(CCl)N1CCCC1c1ccsc1 (stereo not drawn)"
  subject-of-test: "UniProt P51784"
  obs-value: -0.115
- compound: "CC(NC(=O)CCl)c1cnn(C2CC2)c1 (stereo not drawn)"
  subject-of-test: "UniProt P51784"
  obs-value: -0.127
- compound: "CC1CN(c2ccc(NC(=O)CCl)cc2)CC(C)O1 (stereo not drawn)"
  subject-of-test: "UniProt P51784"
  obs-value: 0.0387
- compound: "O=C(CCl)NCCc1cccc2ccccc12"
  subject-of-test: "UniProt P51784"
  obs-value: 0.159
- compound: "O=C(CCl)NC1CCC2(CC1)OCCO2"
  subject-of-test: "UniProt P51784"
  obs-value: -0.104
- compound: "Cl.O=C(CCl)NCc1ccnc(Oc2ccccc2F)c1"
  subject-of-test: "UniProt P51784"
  obs-value: 0.0358
- compound: "O=C(CCl)N1CCc2nc[nH]c2C1c1ccc(Cl)cc1 (stereo not drawn)"
  subject-of-test: "UniProt P51784"
  obs-value: 0.194
- compound: "Cc1ccc(-c2nnc(C)[nH]2)c(NC(=O)CCl)c1"
  subject-of-test: "UniProt P51784"
  obs-value: 0.126

###

subject-of-test: USP7 (UniProt Q93009)
Sequence (Q93009 whole entry, looked up, the tested form may be a part): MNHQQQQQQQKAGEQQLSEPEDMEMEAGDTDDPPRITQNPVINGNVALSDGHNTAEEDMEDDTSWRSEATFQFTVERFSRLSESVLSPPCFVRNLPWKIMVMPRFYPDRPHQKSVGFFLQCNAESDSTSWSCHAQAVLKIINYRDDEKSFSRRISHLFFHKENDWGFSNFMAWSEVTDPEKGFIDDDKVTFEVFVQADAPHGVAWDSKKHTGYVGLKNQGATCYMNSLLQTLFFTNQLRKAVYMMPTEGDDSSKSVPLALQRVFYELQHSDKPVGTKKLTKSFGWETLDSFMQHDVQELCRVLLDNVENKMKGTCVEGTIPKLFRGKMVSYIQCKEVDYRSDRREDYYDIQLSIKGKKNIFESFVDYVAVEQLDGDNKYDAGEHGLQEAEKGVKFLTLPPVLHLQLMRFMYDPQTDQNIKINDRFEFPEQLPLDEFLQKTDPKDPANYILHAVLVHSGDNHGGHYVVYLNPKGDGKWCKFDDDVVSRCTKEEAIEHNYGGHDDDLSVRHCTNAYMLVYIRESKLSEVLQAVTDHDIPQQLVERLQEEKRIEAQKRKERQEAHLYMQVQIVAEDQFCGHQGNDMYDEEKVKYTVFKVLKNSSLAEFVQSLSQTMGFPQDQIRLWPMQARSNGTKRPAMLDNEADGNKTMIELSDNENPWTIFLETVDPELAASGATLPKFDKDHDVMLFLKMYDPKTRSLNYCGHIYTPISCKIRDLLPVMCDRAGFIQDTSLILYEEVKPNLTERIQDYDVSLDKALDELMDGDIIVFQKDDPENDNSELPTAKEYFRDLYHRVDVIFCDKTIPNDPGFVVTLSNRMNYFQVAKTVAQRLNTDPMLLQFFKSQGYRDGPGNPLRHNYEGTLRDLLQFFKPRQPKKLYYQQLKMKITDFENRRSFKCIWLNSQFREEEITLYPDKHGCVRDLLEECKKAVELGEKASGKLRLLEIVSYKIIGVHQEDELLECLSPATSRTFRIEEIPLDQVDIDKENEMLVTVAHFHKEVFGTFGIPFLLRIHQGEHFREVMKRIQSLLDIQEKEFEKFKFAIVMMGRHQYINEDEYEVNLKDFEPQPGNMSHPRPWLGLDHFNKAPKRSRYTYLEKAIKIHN
measurement-protocol: log2 ratio of Biotin-Ahx-Ub-VS probe labelling (fragment/DMSO); higher = less target engagement (more negative = stronger competition), active = hit call of the paper (q ≤ 0.05, log2 ratio ≤ -1)
assay-context: compound concentration: 200 uM; treatment time: 3 h
Classes used: class 1 (active), class 0 (inactive)

- molecule: "COc1cccc(CN(C)C(=O)CCl)c1"
  subject-of-test: "USP7 (UniProt Q93009)"
  class: "class 1"
- molecule: "Cc1n[nH]c(=O)c2c(NC(=O)CCl)oc(C)c12"
  subject-of-test: "USP7 (UniProt Q93009)"
  class: "class 0"
- molecule: "O=C(CCl)Nc1ccc(F)cc1F"
  subject-of-test: "USP7 (UniProt Q93009)"
  class: "class 0"
- molecule: "Cc1ccc(N2CCC(NC(=O)CCl)C2=O)cc1 (stereo unspecified)"
  subject-of-test: "USP7 (UniProt Q93009)"
  class: "class 0"
- molecule: "O=C(CCl)N1CCN2C(=O)CCC2C1 (stereo unspecified)"
  subject-of-test: "USP7 (UniProt Q93009)"
  class: "class 0"
- molecule: "O=C(CCl)N(C1CCCC1)C1CCS(=O)(=O)C1 (stereo unspecified)"
  subject-of-test: "USP7 (UniProt Q93009)"
  class: "class 0"
- molecule: "O=C(CCl)N1CCC(C(=O)N2CCCC2)CC1"
  subject-of-test: "USP7 (UniProt Q93009)"
  class: "class 0"
- molecule: "O=C(CCl)N1CCC(OCc2ccccc2F)CC1"
  subject-of-test: "USP7 (UniProt Q93009)"
  class: "class 0"
- molecule: "Cc1noc(C)c1CNC(=O)CCl"
  subject-of-test: "USP7 (UniProt Q93009)"
  class: "class 0"
- molecule: "C[C@@H](NC(=O)CCl)c1cccc(C#N)c1"
  subject-of-test: "USP7 (UniProt Q93009)"
  class: "class 0"
- molecule: "O=C(CCl)Nc1nc(-c2cccs2)cs1"
  subject-of-test: "USP7 (UniProt Q93009)"
  class: "class 0"
- molecule: "O=C(CCl)Nc1cccc(C(=O)N2CCSCC2)c1"
  subject-of-test: "USP7 (UniProt Q93009)"
  class: "class 0"
- molecule: "O=C(CCl)NCc1cccc(N2CCCC2=O)c1"
  subject-of-test: "USP7 (UniProt Q93009)"
  class: "class 0"
- molecule: "Cc1cccc(N2CCC(NC(=O)CCl)C2=O)c1 (stereo unspecified)"
  subject-of-test: "USP7 (UniProt Q93009)"
  class: "class 0"
- molecule: "CCN(C(=O)CCl)C1CCS(=O)(=O)C1 (stereo unspecified)"
  subject-of-test: "USP7 (UniProt Q93009)"
  class: "class 0"
- molecule: "O=C(CCl)N1CCCCC12CCOCC2"
  subject-of-test: "USP7 (UniProt Q93009)"
  class: "class 0"
- molecule: "O=C(CCl)Nc1cccc2ncccc12"
  subject-of-test: "USP7 (UniProt Q93009)"
  class: "class 0"
- molecule: "O=C(CCl)Nc1ccc(F)cc1Cl"
  subject-of-test: "USP7 (UniProt Q93009)"
  class: "class 0"
- molecule: "Cl.Cn1ncc2c1CCCC2NC(=O)CCl (stereo unspecified)"
  subject-of-test: "USP7 (UniProt Q93009)"
  class: "class 0"
- molecule: "CC1CCc2onc(CNC(=O)CCl)c2C1 (stereo unspecified)"
  subject-of-test: "USP7 (UniProt Q93009)"
  class: "class 0"
- molecule: "CCN1C(=O)C2CN(C(=O)CCl)CCN2C1=O (stereo unspecified)"
  subject-of-test: "USP7 (UniProt Q93009)"
  class: "class 0"
- molecule: "N#Cc1ccc(CNC(=O)CCl)cc1"
  subject-of-test: "USP7 (UniProt Q93009)"
  class: "class 0"
- molecule: "Cc1nc(CN2CCN(C(=O)CCl)CC2)cs1"
  subject-of-test: "USP7 (UniProt Q93009)"
  class: "class 0"
- molecule: "CN(CCc1ncc(Br)cn1)C(=O)CCl.Cl"
  subject-of-test: "USP7 (UniProt Q93009)"
  class: "class 0"
- molecule: "Cl.O=C(CCl)N1CCC(Cc2nccs2)C1 (stereo unspecified)"
  subject-of-test: "USP7 (UniProt Q93009)"
  class: "class 0"
- molecule: "Cl.O=C(CCl)NC1(c2ncccn2)CCC1"
  subject-of-test: "USP7 (UniProt Q93009)"
  class: "class 0"
- molecule: "O=C(CCl)NCc1ccc(N2CCOCC2)nc1"
  subject-of-test: "USP7 (UniProt Q93009)"
  class: "class 0"
- molecule: "CC(c1ccccc1)N(C)C(=O)CCl (stereo unspecified)"
  subject-of-test: "USP7 (UniProt Q93009)"
  class: "class 0"
- molecule: "CN1C(=O)c2ccc(NC(=O)CCl)cc2C1=O"
  subject-of-test: "USP7 (UniProt Q93009)"
  class: "class 0"
- molecule: "O=C(CCl)NCCC1=CCCCC1"
  subject-of-test: "USP7 (UniProt Q93009)"
  class: "class 0"
- molecule: "O=C(CCl)NC1(c2ccc3c(c2)OCCO3)CCCC1"
  subject-of-test: "USP7 (UniProt Q93009)"
  class: "class 0"
- molecule: "CN(CCC(O)c1ccc(Br)cc1)C(=O)CCl (stereo unspecified)"
  subject-of-test: "USP7 (UniProt Q93009)"
  class: "class 0"
- molecule: "CCN(C(=O)CCl)C1CCCCC1"
  subject-of-test: "USP7 (UniProt Q93009)"
  class: "class 0"
- molecule: "Cl.O=C(CCl)N1CCc2ncncc2C1"
  subject-of-test: "USP7 (UniProt Q93009)"
  class: "class 0"
- molecule: "CC(=O)C1CCCCN1C(=O)CCl (stereo unspecified)"
  subject-of-test: "USP7 (UniProt Q93009)"
  class: "class 0"
- molecule: "CC(NC(=O)CCl)c1cccc2ccccc12 (stereo unspecified)"
  subject-of-test: "USP7 (UniProt Q93009)"
  class: "class 0"
- molecule: "O=C(CCl)N1CCN(C(=O)Nc2ccccc2)CC1"
  subject-of-test: "USP7 (UniProt Q93009)"
  class: "class 0"
- molecule: "Cl.O=C(CCl)N1CCn2ncc(O)c2C1"
  subject-of-test: "USP7 (UniProt Q93009)"
  class: "class 0"
- molecule: "CS(=O)(=O)N1CCCN(C(=O)CCl)CC1"
  subject-of-test: "USP7 (UniProt Q93009)"
  class: "class 0"
- molecule: "O=C(CCl)NCCc1ccc2c(c1)OCCO2"
  subject-of-test: "USP7 (UniProt Q93009)"
  class: "class 0"
- molecule: "CC1Cc2ccccc2N1C(=O)CCl (stereo unspecified)"
  subject-of-test: "USP7 (UniProt Q93009)"
  class: "class 1"
- molecule: "Cc1cccc(C(CNC(=O)CCl)N2CCOCC2)c1.Cl (stereo unspecified)"
  subject-of-test: "USP7 (UniProt Q93009)"
  class: "class 0"
- molecule: "O=C(CCl)N1CCCN(C(=O)c2ccc(Cl)cc2)CC1"
  subject-of-test: "USP7 (UniProt Q93009)"
  class: "class 1"
- molecule: "Cc1ccccc1C1(CNC(=O)CCl)CCOCC1"
  subject-of-test: "USP7 (UniProt Q93009)"
  class: "class 0"
- molecule: "Cl.Cn1cnc2cc(CNC(=O)CCl)ccc21"
  subject-of-test: "USP7 (UniProt Q93009)"
  class: "class 0"
- molecule: "Cc1ccc(-c2nnc(C)[nH]2)c(NC(=O)CCl)c1"
  subject-of-test: "USP7 (UniProt Q93009)"
  class: "class 0"
